Numbers sourced from patent US8853424B2.

- Tested on: transglutaminase (TGase)
- METHOD: Measurement of TG (TGase inhibitory activity, monodansyl cadaverine / N,N-dimethylcasein fluorescence, FDSS 3000)
- Type: biochemical
- CONDITION INFO: TGase activity with compound (10 mM, 1 μL in 0.1 ml enzyme reaction solution); DMSO control taken as 100
PARAMETER MEASURED: TGase activity remaining (% of DMSO control = 100)
Output spec: single numeric token, no unit.

OB(c1ccccc1)c1ccc(Oc2ccc(B(O)c3ccccc3)cc2)cc1 = −20
FC(F)(F)c1ccc(C(OB(c2ccccc2)c2ccc(COCc3ccc(B(OC(c4ccc(C(F)(F)F)cc4)c4ccccn4)c4ccc(COCc5ccc(B(OC(c6ccc(C(F)(F)F)cc6)c6ccccn6)c6ccccc6)cc5)cc4)cc3)cc2)c2ccccn2)cc1 (centres unmarked) = 102
c1ccc(B(ON2CCCCC2)c2cccc(Oc3cccc(B(ON4CCCCC4)c4ccccc4)c3)c2)cc1 = 115
CN(C)CCOB(c1ccc(C(F)(F)F)cc1)c1ccc(C(F)(F)F)cc1 [Example 69] = 76

In the following, a different compound is considered.
Bench note, transglutaminase (TGase): entry OB(c1ccc(COCc2ccc(B(O)c3ccc(F)c(F)c3)cc2)cc1)c1ccc(F)c(F)c1 [Example 411] , its TGase activity remaining (% of DMSO control = 100) = 138

----------
The following compounds are listed with their measured TGase activity remaining (% of DMSO control = 100) values.
- Test system: transglutaminase (TGase)
- METHOD: Measurement of TG (TGase inhibitory activity, monodansyl cadaverine / N,N-dimethylcasein fluorescence, FDSS 3000)
- Format: biochemical
- CONDITION INFO: TGase activity with compound (10 mM, 1 μL in 0.1 ml enzyme reaction solution); DMSO control taken as 100
Output spec: single numeric token, no unit.

Here's what some known entries look like.
NCCOB(c1ccccc1)c1cccc(-c2cccc(B(OCCN)c3ccccc3)n2)n1 = 76
O=C(O)CC1[NH2+][B-](c2ccccc2)(c2ccccc2)OC1=O (stereo not drawn) = 103

In the following, a different compound is considered.
TGase activity remaining (% of DMSO control = 100) for NCC(N)C(=O)OB(c1ccccc1)c1ccccc1 (stereo not drawn) [Example 272] is 83

----------
- System: transglutaminase (TGase)
- METHOD: Measurement of TG (TGase inhibitory activity, monodansyl cadaverine / N,N-dimethylcasein fluorescence, FDSS 3000)
- Assay type: biochemical
- CONDITION INFO: TGase inhibitory activity measurement; unit not given
Response field label takes fulfilled when TGase activity remaining (% of DMSO control = 100) is strictly below 80 and not fulfilled in all other cases.

Record excerpt, results attached:
Cc1ccc(B(O)c2ccc(Oc3ccc(B(O)c4ccc(C)cc4)cc3)cc2)cc1 [Example 440, bis(4,4′-(tolylhydroxyboryl)phenyl)ether] = fulfilled
NCCOB(c1ccc(COCc2ccc(B(OCCN)c3ccc(F)c(F)c3)cc2)cc1)c1ccc(F)c(F)c1 = not fulfilled
NCCCCC(N)C(=O)OB(c1ccccc1)c1ccc(COCc2ccc(B(OC(=O)C(N)CCCCN)c3ccccc3)cc2)cc1 (centres unmarked) = fulfilled
COc1ccc(B(OC(=O)C(N)CCN)c2ccc(COCc3ccc(B(OC(=O)C(N)CCN)c4ccc(OC)cc4)cc3)cc2)cc1 (centres unmarked) = not fulfilled

In the record for "CN(C)CCOB(c1ccc(Oc2ccc(B(OCCN(C)C)c3cccc4ccccc34)cc2)cc1)c1cccc2ccccc12" , is TGase activity remaining (% of DMSO control = 100) less than 80?
not fulfilled

In the record for "NCCOB(c1ccsc1)c1ccc2sc3ccc(B(OCCN)c4ccsc4)cc3c2c1" , is TGase activity remaining (% of DMSO control = 100) less than 80?
fulfilled

In the record for "CN(C)CCOB(c1ccccc1)c1ccc(COc2ccc(B(OCCN(C)C)c3ccccc3)cc2)cc1" , is TGase activity remaining (% of DMSO control = 100) less than 80?
fulfilled

In the record for NCCC(N)C(=O)OB(c1ccccc1)c1ccc(COCc2ccc(B(OC(=O)C(N)CCN)c3ccccc3)cc2)cc1 (centres unmarked) , is TGase activity remaining (% of DMSO control = 100) less than 80?
not fulfilled

In the record for NCCCC(N)C(=O)OB(c1ccccc1)c1ccc(Oc2ccc(B(OC(=O)C(N)CCCN)c3ccccc3)cc2)cc1 (centres unmarked) , is TGase activity remaining (% of DMSO control = 100) less than 80?
fulfilled

In the record for NC(=O)CCC(N)C(=O)OB(c1ccccc1)c1cccc(COCc2cccc(B(OC(=O)C(N)CCC(N)=O)c3ccccc3)c2)c1 (centres unmarked) , is TGase activity remaining (% of DMSO control = 100) less than 80?
fulfilled
